- study system: T1, human Siglec-7 expressed on human cells (primary monocytes, dendritic cells, macrophages, NK cells, … (human, UniProt Q9Y286 19-467))
- T1 construct: Endogenous receptor on cells; also called Siglec-7 receptor
- T1 sequence (Q9Y286 19-467): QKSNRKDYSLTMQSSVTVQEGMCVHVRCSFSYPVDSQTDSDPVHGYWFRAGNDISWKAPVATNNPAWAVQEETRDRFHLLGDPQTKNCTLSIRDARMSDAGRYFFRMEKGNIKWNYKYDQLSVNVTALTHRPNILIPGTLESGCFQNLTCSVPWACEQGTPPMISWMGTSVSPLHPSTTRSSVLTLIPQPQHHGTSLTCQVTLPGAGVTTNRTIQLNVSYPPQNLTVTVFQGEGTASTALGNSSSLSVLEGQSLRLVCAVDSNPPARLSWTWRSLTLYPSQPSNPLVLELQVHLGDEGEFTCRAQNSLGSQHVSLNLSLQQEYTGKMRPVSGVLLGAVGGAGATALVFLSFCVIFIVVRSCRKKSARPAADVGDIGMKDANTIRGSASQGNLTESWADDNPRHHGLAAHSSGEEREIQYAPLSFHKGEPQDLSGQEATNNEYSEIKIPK
- protocol: FACS, human primary monocytes, 10 ug/ml mAb
- Description: Initial characterization of Siglec-7 antibodies involved determining their ability to bind Siglec-7 expressed on human primary monocytes, human primary macrophages, human primary dendritic cells, human primary neutrophils, and human primary natural killer (NK) cells. Cells were harvested, plated at 10⁶/ml in a 96 well plate, and incubated in 100 ul PBS containing 2% FBS, 2 mM EDTA and 10 μg/ml Mab and Fc blocking reagent for 1 hour in ice. […]
readout name: % Positive (%)
Reply with just the number (in %).

Given anti-Siglec-7 antibody 1E8 (antibody, V domains shown) VH: QVQLQQSGAELVRPGASVKLSCSASGFNIKGSLLHWIKQRPLQGLEWIGWIDPEDGETRFDPKFQDKAFLTADTSSTTAYLQLSSLTSEDTAIYYCARTEYSNPAWFAYWGQGTLVTVSA VL: DIQMTQFPATLSVTPGDRVSLSCRASQSISDYLHWYQHKSHESPRLLIKYASQSISGIPSRFSGSGSGWDFTLSINSVEPEDVGIYYCQKGLNFPLTFGGGTKLEMK , state its recorded % Positive.
99.3

Consider next the binder anti-Siglec-7 antibody 7A3 (antibody, V domains shown, Variable domains assembled from FR and CDR entries; VL FR1 and VH FR1 hold Z and VH FR1 looks shortened at its N-terminus) VH: LVZSGGALVKPGGSLKLSCAASGFTFSNYAMSWVRQTPEKRLEWVASISSGGSYNYYPDSVKGRFTISRDNARNTLYLQMSSLRSKDTAMYYCASQSYGSSYWYFDVWGAGTTVTVSS VL: DIQMTQZPATLSVTPGDRVSLSCRASQSISEYLHWYHQKSHESPRLLIKFASQSICGIPSRFSGSGSGSDFTLTINSVEPEDVGVYYCQNGHNFPYTFGGGTKLEIK in the same way.
97.9

Another binder: anti-Siglec-7 antibody 3E11 (antibody, V domains shown, Variable domains assembled from FR and CDR entries) VH: QVQLQQSGAELARPGASVKLSCKASGYIFTDYGITWVKQRTGQGLEWIGEISPRSGETYFNENYRVKATLTADKSSSTAYMQLFSLTSEDSAVYFCAREGNPFTYWGHGTLVTVSA VL: DVZMTQTPLSLPVSLGDQASISCRSSQSLVHSTGNTYLHWYLQKPGQSPKLLIYKVSNRFCGVPDRFSGSGAGTDFTLKISRVEAEDLGVYFCSQNTHVPYTFGGGTKLEIK
98.7
